Biological target: biotinylated histone H3 peptide trimethylated at lysine 27, H3K27me3 (21-44) (UniProt P68431 22-45, trimethyl-lysine at K27; biotinylated)
Test: peptide microspot array; apparent Kd; 10 uM H3K27me3; replicate 1
Reported endpoint: pKd
Answers are plain numbers, as −log10 of the molar value.

Answer with the recorded pKd of PcTF, monovalent Polycomb-based transcription factor (pET28 construct, purified from E. coli) (designed binder) MELSAVGERVFAAEALLKRRIRKGRMEYLVKWKGWSQKYSTWEPEENILDARLLAAFEERER only. 5.81
